ASSAYED_TARGET: Metabotropic glutamate receptor 4 (Homo sapiens, UniProt Q14833)
Sequence (Q14833 whole entry): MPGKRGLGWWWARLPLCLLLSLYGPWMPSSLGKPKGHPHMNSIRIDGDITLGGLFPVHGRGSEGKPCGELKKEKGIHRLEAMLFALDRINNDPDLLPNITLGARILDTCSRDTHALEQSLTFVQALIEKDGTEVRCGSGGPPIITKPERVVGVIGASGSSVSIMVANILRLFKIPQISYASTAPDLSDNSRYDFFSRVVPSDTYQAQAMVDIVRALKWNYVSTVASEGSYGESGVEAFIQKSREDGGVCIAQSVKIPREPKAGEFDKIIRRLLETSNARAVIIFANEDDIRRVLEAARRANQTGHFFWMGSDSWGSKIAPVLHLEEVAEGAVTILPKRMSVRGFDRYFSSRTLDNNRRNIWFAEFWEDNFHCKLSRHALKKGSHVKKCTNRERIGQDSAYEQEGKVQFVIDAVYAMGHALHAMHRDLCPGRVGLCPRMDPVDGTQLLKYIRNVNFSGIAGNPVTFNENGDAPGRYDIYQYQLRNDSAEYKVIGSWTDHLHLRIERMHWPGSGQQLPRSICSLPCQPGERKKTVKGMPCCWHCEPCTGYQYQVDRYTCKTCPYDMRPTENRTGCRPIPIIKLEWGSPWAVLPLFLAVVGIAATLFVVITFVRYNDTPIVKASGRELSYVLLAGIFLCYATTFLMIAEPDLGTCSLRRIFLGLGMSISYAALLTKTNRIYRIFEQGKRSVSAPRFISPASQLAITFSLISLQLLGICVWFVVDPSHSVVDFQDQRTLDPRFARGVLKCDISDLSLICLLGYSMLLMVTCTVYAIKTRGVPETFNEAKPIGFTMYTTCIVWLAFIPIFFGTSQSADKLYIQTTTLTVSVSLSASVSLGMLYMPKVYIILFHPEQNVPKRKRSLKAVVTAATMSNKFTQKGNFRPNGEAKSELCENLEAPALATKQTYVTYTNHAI
ASSAY_SUMMARY: Positive allosteric modulation of human mGluR4 by calcium mobilization assay
QUANTITY_KIND: pEC50
# pEC50 = -log10(concentration in molar units)

Solved cases (3 shown):
SMILES_STRING	ASSAYED_TARGET	pEC50
Cc1ccoc1C(=O)Nc1ccc(N2C(=O)c3cccc(F)c3C2=O)cc1	Metabotropic glutamate receptor 4 (Homo sapiens, UniProt Q14833)	6.42
Cc1cc(NC(=O)c2occc2C)ccc1N1C(=O)c2ccccc2C1=O	Metabotropic glutamate receptor 4 (Homo sapiens, UniProt Q14833)	6.05
Cc1ccoc1C(=O)Nc1ccc(N2C(=O)c3cccc(C)c3C2=O)c2ccccc12	Metabotropic glutamate receptor 4 (Homo sapiens, UniProt Q14833)	6.37

Q. Given the entry "Cc1ccoc1C(=O)Nc1ccc(N2C(=O)c3cccc(F)c3C2=O)c2ccccc12" , report its measured pEC50.
A. 6.09

Q. Same again, this time with "Cc1cc(NC(=O)c2occc2C)ccc1N1C(=O)c2cccc(F)c2C1=O"
A. 5.96

Q. Same again, this time with "Cc1ccoc1C(=O)Nc1ccc(N2C(=O)c3cccc(F)c3C2=O)c(F)c1"
A. 6.17

Q. Same again, this time with "COc1cc(NC(=O)c2occc2C)ccc1N1C(=O)c2ccccc2C1=O"
A. 5.93

---

Entries and their log10 EC50
ASSAYED_TARGET: Metabotropic glutamate receptor 4 (Homo sapiens, UniProt Q14833)
ASSAY_SUMMARY: Positive allosteric modulation of human mGluR4 by calcium mobilization assay
Recall that a logarithmic scale is used here: each number is log10 of EC50 in nM.

SMILES_STRING	ASSAYED_TARGET	log10 EC50
Cc1ccoc1C(=O)Nc1ccc(N2C(=O)c3cccc(Cl)c3C2=O)c(F)c1	Metabotropic glutamate receptor 4 (Homo sapiens, UniProt Q14833)	2.42
Cc1ccoc1C(=O)Nc1ccc(N2C(=O)c3cccc(F)c3C2=O)nc1	Metabotropic glutamate receptor 4 (Homo sapiens, UniProt Q14833)	3.55
Cc1ccoc1C(=O)Nc1cnc(N2C(=O)c3cccc(C)c3C2=O)nc1	Metabotropic glutamate receptor 4 (Homo sapiens, UniProt Q14833)	3.65
Cc1ccoc1C(=O)Nc1ccc(N2C(=O)c3cccc(Cl)c3C2=O)nc1	Metabotropic glutamate receptor 4 (Homo sapiens, UniProt Q14833)	3.05
Cc1ccoc1C(=O)Nc1ccc(N2C(=O)c3cccc(C)c3C2=O)cc1	Metabotropic glutamate receptor 4 (Homo sapiens, UniProt Q14833)	2.54

Q. Given the entry "COc1cc(NC(=O)c2occc2C)ccc1N1C(=O)c2cccc(F)c2C1=O" , report its measured log10 EC50.
A. 3.29

Q. Same again, this time with "Cc1ccoc1C(=O)Nc1ccc(N2C(=O)c3cccc(F)c3C2=O)c(C(F)(F)F)c1"
A. 3.46

Q. Same again, this time with "COc1cc(NC(=O)c2occc2C)ccc1N1C(=O)c2cccc(C)c2C1=O"
A. 2.95

Q. Same again, this time with "Cc1ccoc1C(=O)Nc1ccc(N2C(=O)c3cccc(C)c3C2=O)c(F)c1"
A. 2.46

Q. Same again, this time with "Cc1cc(NC(=O)c2occc2C)ccc1N1C(=O)c2cccc(Cl)c2C1=O"
A. 3.00

Q. Same again, this time with "Cc1ccoc1C(=O)Nc1cnc(N2C(=O)c3ccccc3C2=O)nc1"
A. 3.67
